# System: Malme-3M
# protocolDescription: NCI tumour cell line growth inhibition, 48 h
Active and inactive are the calls of the source. Cut-off read from the data, not from the text of the source: active = GI50 up to about 1.1 µM and inactive = higher.
// reported GI50 per item
endpointName: GI50

# compound, measuredOn, value
data = [
    ("O=C1CCCC(=O)N1CCc1c[nH]c2ccccc12", "Malme-3M", "> 100 µM (inactive)"),
    ("CCNC(=O)c1c(O)nc2ccccc2c1O", "Malme-3M", "> 100 µM (inactive)"),
    ("CC1C[C@@H]2C(=O)NC(=O)[C@@H]2c2c1c1ccccc1n2C (some centres undefined)", "Malme-3M", "> 100 µM (inactive)"),
    ("Brc1ccc(C[N+]23CN4CN(CN(C4)C2)C3)cc1", "Malme-3M", "26.2 µM (inactive)"),
]
